Molecular target: bovine cardiac myofibrils (full-length cardiac myosin ATPase in the native sarcomere) (Bos taurus (Bovine))
Sequence (Q9BE39 whole entry): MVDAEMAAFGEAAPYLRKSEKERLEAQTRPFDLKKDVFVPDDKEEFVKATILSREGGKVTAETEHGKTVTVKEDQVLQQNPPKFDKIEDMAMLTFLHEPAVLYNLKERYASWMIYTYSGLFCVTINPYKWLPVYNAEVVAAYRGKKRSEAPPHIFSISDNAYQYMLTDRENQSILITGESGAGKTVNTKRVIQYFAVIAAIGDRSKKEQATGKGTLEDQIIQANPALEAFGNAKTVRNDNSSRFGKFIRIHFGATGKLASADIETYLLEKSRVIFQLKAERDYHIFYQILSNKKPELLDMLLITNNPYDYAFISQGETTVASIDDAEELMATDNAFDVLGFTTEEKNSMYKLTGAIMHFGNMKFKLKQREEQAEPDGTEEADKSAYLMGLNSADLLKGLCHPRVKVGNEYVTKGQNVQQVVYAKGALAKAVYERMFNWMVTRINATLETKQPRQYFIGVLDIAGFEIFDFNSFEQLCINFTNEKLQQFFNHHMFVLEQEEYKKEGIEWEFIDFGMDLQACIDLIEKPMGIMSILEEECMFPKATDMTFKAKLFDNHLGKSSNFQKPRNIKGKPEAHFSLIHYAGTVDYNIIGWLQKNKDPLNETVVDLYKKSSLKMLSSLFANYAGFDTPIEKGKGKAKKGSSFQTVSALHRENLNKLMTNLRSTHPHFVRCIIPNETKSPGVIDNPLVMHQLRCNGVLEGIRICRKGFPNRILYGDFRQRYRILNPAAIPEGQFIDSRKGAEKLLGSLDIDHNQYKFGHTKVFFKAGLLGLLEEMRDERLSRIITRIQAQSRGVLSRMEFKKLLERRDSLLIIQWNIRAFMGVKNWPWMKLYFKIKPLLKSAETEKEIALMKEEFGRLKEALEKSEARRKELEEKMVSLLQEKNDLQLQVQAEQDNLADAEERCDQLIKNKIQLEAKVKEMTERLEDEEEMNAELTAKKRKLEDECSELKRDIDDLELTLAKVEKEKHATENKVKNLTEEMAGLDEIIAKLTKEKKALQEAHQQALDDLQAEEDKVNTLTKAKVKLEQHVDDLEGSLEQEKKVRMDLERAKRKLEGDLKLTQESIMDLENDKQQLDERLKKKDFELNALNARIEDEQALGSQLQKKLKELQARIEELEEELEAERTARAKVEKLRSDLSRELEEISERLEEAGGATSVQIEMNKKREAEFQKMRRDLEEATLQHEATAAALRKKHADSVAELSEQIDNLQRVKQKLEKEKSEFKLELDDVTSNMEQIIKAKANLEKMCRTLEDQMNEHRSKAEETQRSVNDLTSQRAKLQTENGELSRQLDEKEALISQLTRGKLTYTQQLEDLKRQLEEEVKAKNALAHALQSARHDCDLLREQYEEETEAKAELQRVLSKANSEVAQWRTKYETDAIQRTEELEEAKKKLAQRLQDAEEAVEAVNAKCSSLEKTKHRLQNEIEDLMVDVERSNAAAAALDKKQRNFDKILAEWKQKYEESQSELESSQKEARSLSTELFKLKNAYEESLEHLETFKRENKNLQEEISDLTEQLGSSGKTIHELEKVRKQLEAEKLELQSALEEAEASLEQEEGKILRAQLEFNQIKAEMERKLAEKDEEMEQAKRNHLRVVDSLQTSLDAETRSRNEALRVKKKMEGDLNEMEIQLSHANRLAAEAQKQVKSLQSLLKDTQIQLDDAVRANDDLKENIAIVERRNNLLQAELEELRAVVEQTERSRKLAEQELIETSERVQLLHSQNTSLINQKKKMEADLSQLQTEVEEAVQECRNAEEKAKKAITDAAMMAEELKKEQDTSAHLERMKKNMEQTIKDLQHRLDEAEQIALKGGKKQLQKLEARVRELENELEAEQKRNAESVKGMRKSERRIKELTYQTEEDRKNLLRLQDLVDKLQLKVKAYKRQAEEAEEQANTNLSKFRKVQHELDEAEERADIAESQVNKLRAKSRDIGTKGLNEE
Sequence (P85100 whole entry partner): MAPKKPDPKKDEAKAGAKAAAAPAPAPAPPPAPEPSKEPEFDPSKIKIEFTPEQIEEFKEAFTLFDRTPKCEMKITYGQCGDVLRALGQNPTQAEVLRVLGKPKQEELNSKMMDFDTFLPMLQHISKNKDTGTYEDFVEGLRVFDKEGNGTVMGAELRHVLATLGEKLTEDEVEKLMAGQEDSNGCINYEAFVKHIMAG
Sequence (Q3SZE5 whole entry partner): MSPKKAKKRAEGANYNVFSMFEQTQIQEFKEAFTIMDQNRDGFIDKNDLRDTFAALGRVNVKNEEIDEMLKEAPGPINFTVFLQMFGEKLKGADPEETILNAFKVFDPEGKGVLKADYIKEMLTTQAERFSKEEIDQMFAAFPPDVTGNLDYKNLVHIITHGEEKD
Assay: Skinned bovine cardiac myofibril ATPase assay (PK/LDH-coupled)
Format: biochemical
Details: Ca2+ activating to 75% of maximal rate, concentration giving 15% inhibition
ATTRIBUTE_MEASURED: CDMF75 IC15 (nM)

O=C(N[C@@H]1CCc2cc(-c3noc(C(F)F)n3)ccc21)C1CC1
2900
Cc1ncc(C(=O)N[C@@H]2COc3cc(-c4noc(C5(C)CC5)n4)ccc32)o1
800
Cc1cc(C(=O)NC2CCc3cc(-c4noc(C(F)F)n4)ccc32)cnn1 (centres unmarked)
2100
Cc1nc(-c2ccc3c(c2)CCC3NC(=O)Nc2ccncc2)no1 (centres unmarked)
5500
Cc1nc(-c2ccc3c(c2)CCC3NC(=O)c2cnn(C)n2)no1 (centres unmarked)
3300
Cc1nc(-c2ccc3c(c2)CC[C@H]3NC(=O)c2ccc3[nH]c(=O)[nH]c3c2)no1
1600

(1) Cc1noc(-c2ccc3c(c2)CC[C@H]3NC(=O)c2ccnc(C(F)F)c2)n1
(2) O=C(N[C@@H]1CCc2cc(-c3noc(C(F)F)n3)ccc21)c1ocnc1C(F)(F)F
Challenge: Dear colleague, could you let me know whether 1 or 2 has the lower recorded CDMF75 IC15? Thanks. I would appreciate it if you answered with the label of your choice.
Response given: 2

* * *

Target: bovine cardiac myofibrils (full-length cardiac myosin ATPase in the native sarcomere) (Bos taurus (Bovine))
Experiment: Skinned bovine cardiac myofibril ATPase assay (PK/LDH-coupled)
Conditions: Ca2+ activating to 75% of maximal rate, read-out: CDMF75 IC50
pIC50: −log10 of the molar value.
ATTRIBUTE_MEASURED: pIC50

COCc1nc(-c2ccc3c(c2)CC[C@H]3NC(=O)c2cc(CO)ccn2)no1 [Compound 673]
4.89
Cc1nc(-c2ccc3c(c2)CC[C@H]3NC(=O)c2cn[nH]c2)no1 [Compound 487]
5.47
Cc1ncc(C(=O)N[C@@H]2CCc3cc(-c4noc(C(F)F)n4)ccc32)s1 [Compound 676]
5.74

(a) O=C(N[C@@H]1CCc2cc(-c3noc(C(F)F)n3)ccc21)c1cc(CO)ccc1F [Compound 663]
(b) CC(=O)N[C@@H]1COc2cc(-c3noc(C)n3)ccc21 [Compound 450]
Challenge: Among a and b , which shows a numerically higher pIC50 result? I would appreciate it if you answered with the label of your choice.
Response given: b
(b: 4.91, a: 4.71)

(a) [2H]C([2H])([2H])c1nc(-c2ccc3c(c2)OC[C@H]3NC(=O)c2cn(C)nc2C)no1 [Compound 270]
(b) CCc1nc(-c2ccc3c(c2)CC[C@H]3NC(=O)c2ccnn2CCO)no1 [Compound 607]
(c) Cn1nnc(C(=O)N[C@@H]2CCc3cc(-c4noc(C5CC5)n4)ccc32)n1 [Compound 141]
(d) COCc1nc(-c2ccc3c(c2)OC[C@H]3NC(=O)c2ccnc(CO)c2)no1 [Compound 714]
Challenge: Sort by pIC50, descending. Return value: ordered labels per request.
Response given: c, a, d, b

* * *

Target: bovine cardiac myofibrils (full-length cardiac myosin ATPase in the native sarcomere) (Bos taurus (Bovine))
Test: Skinned bovine cardiac myofibril ATPase assay (PK/LDH-coupled)
Details: Ca2+ activating to 75% of maximal rate, read-out: CDMF75 IC50
pIC50: −log10 of the molar value.
ATTRIBUTE_MEASURED: pIC50

(I) CCc1nc(-c2ccc3c(c2)CC[C@H]3NC(=O)c2cnn(CCOC)c2)no1 [Compound 472]
(II) CCc1nc(-c2cnc3c(c2)CCC3NC(=O)c2ccccc2)no1 (stereo not drawn) [Compound 17]
Challenge: Among I and II , which shows a numerically higher pIC50 result? I would appreciate it if you answered with the label of your choice.
Response given: I

These entries and their values trace back to patent US12065436B2.
